meta.source: the kinase profiling compilation of Christmann-Franck et al. (2016)

- system: CDC42BPB (human) (UniProt Q9Y5S2)
- Sequence (Q9Y5S2 whole entry, looked up): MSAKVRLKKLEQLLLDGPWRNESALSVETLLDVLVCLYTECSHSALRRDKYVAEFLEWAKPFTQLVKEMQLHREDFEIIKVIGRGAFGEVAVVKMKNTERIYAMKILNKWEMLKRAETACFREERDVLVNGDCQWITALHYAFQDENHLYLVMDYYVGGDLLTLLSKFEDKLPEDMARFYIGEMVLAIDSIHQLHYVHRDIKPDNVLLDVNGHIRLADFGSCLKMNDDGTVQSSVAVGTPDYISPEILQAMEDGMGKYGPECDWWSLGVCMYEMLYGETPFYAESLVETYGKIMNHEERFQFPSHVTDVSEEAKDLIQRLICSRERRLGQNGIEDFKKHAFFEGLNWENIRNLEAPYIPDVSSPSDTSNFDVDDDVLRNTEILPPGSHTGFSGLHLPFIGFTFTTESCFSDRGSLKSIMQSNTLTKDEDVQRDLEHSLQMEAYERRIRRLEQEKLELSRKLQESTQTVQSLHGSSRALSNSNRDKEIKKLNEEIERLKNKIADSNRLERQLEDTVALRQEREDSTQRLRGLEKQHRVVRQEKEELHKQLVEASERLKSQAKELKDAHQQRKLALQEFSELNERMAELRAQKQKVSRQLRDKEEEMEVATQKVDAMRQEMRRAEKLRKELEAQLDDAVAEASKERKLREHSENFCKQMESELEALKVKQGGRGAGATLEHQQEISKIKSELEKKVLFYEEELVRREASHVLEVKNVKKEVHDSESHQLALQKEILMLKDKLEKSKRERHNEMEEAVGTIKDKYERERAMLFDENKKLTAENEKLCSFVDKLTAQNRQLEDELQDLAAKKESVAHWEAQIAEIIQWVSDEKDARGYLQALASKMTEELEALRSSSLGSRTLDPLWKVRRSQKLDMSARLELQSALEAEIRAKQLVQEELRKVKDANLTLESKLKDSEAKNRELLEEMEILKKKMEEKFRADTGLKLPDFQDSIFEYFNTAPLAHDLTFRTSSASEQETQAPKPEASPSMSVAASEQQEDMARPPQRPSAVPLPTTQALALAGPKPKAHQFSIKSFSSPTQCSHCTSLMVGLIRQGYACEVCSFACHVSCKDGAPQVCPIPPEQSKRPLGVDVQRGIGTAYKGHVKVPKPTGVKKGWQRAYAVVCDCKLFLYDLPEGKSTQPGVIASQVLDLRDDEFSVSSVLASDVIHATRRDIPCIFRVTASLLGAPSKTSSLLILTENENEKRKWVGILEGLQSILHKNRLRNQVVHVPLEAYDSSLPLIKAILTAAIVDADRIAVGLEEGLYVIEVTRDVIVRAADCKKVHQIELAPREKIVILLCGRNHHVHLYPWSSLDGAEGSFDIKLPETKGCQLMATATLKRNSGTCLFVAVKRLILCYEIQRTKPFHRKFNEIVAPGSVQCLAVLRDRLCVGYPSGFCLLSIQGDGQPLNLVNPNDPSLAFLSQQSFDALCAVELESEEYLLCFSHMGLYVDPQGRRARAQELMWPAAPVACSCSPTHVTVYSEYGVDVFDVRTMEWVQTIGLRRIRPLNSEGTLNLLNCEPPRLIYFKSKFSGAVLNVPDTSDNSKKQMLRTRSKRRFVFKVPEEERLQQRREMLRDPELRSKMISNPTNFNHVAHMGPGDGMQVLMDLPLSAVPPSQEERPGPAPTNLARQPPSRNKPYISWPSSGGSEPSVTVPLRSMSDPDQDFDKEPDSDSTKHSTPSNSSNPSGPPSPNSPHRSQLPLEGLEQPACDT
- protocol.details: KINOMEscan competition binding
- assay.context: compound 10.0 µM
# kinase still bound, per cent of control per entry
# unit: % | format: bare number

1. Nc1ccc(-c2ccc3ncc4ccc(=O)n(-c5cccc(C(F)(F)F)c5)c4c3c2)cn1; 96
2. O=C1Nc2ccc(I)cc2/C1=C/c1cc(Br)c(O)c(Br)c1; 100
3. COc1cc(C(=O)NC2CCN(C)CC2)ccc1Nc1ncc2c(n1)N(C1CCCC1)C(C)CC(=O)N2C (centres undefined); 100
4. O=C(O)c1ccc(Nc2ncc3c(n2)-c2ccc(Cl)cc2C(c2c(F)cccc2F)=NC3)cc1; 69
5. CN(C)C/C=C/C(=O)Nc1cccc(Nc2ncc3c(n2)N(C)c2ccccc2C(=O)N3C)c1; 100
6. COc1cc(N2CCN(C)CC2)ccc1Nc1nc(N)c(C(=O)c2c(Cl)cccc2Cl)s1; 100
7. Cc1cc([C@@H](C)Nc2ccccc2C(=O)O)c2nc(N3CCOCC3)cc(=O)n2c1; 100
8. Cc1ccc2nc(NCCN)c3ncc(C)n3c2c1; 100
9. O=C(NC1CC1)c1cccc(-c2ccc3c(NC(=O)C4CC4)n[nH]c3c2)c1; 76
10. CCC(=O)N1CCN(c2ccc(-n3c(=O)ccc4cnc5ccc(-c6cnc7ccccc7c6)cc5c43)cc2C(F)(F)F)CC1; 3.4

Q. Report kinase still bound, per cent of control for N#Cc1c(NC(=O)c2cccc3ccccc23)sc2c1CCCC2 please.
A. 80

Q. Report kinase still bound, per cent of control for C=CC(=O)Nc1cccc(Oc2nc(Nc3ccc(N4CCN(C)CC4)cc3OC)ncc2Cl)c1 please.
A. 100

Q. Report kinase still bound, per cent of control for C=CC(=O)Nc1cc(NC(=O)c2ccc(C)c(NC(=O)c3ccno3)c2)cc(C(F)(F)F)c1 please.
A. 91

Q. Report kinase still bound, per cent of control for Cn1c(=O)n(-c2ccc(C(C)(C)C#N)cc2)c2c3cc(-c4cnc5ccccc5c4)ccc3ncc21 please.
A. 100

Q. Report kinase still bound, per cent of control for CCN1CCN(Cc2ccc(Nc3ncc4c(n3)N(C)c3ccccc3C(=O)N4C)cc2C(F)(F)F)CC1 please.
A. 99

Q. Report kinase still bound, per cent of control for C[C@@H](Oc1cc(-n2cnc3ccc(CN4CCN(C)CC4)cc32)sc1C(N)=O)c1ccccc1C(F)(F)F please.
A. 100

Q. Report kinase still bound, per cent of control for Cc1ccc(NC(=O)c2cccc(C(C)(C)C#N)c2)cc1Nc1ccc2ncn(C)c(=O)c2c1 please.
A. 100

Q. Report kinase still bound, per cent of control for CCCS(=O)(=O)Nc1ccc(F)c(C(=O)c2c[nH]c3ncc(-c4ccc(Cl)cc4)cc23)c1F please.
A. 79

Q. Report kinase still bound, per cent of control for COc1cc(C(=O)NC2CCN(C)CC2)ccc1Nc1ncc2c(n1)N(C1CCCC1)CCC(=O)N2C(C)C please.
A. 100
